Each record here notes measured MIC80.
tested on: Cryptococcus neoformans; assay: Antifungal activity against Cryptococcus neoformans H99 assessed as fungal growth inhibition measured after 48 hrs by CLSI based micro-dilution broth method; format: functional
OBSERVED_PROPERTY: MIC80 (µg/mL)

# COMPOUND_STRUCTURE, OBSERVED_PROPERTY, INEQUALITY_SYMBOL, READOUT_NUMBER
records = [
    ("COc1cc2c(cc1-c1c(C)noc1C)[nH]c1ncnc(NCCCCC(=O)NO)c12", "MIC80", ">", 64),
    ("COc1cc2c(cc1-c1c(C)noc1C)[nH]c1ncnc(NCCCCCCCC(=O)NO)c12", "MIC80", "=", 2),
    ("COc1cc2c(cc1-c1c(C)noc1C)[nH]c1nc(C)nc(NCCCCCCCC(=O)NO)c12", "MIC80", "=", 64),
]

Data provenance: ChEMBL document CHEMBL5316308
